These measurements were taken from BindingDB's records for patent US20250059196.

biological target: Mucosa-associated lymphoid tissue lymphoma translocation protein 1 (Homo sapiens)
Sequence (Q9UDY8 whole entry): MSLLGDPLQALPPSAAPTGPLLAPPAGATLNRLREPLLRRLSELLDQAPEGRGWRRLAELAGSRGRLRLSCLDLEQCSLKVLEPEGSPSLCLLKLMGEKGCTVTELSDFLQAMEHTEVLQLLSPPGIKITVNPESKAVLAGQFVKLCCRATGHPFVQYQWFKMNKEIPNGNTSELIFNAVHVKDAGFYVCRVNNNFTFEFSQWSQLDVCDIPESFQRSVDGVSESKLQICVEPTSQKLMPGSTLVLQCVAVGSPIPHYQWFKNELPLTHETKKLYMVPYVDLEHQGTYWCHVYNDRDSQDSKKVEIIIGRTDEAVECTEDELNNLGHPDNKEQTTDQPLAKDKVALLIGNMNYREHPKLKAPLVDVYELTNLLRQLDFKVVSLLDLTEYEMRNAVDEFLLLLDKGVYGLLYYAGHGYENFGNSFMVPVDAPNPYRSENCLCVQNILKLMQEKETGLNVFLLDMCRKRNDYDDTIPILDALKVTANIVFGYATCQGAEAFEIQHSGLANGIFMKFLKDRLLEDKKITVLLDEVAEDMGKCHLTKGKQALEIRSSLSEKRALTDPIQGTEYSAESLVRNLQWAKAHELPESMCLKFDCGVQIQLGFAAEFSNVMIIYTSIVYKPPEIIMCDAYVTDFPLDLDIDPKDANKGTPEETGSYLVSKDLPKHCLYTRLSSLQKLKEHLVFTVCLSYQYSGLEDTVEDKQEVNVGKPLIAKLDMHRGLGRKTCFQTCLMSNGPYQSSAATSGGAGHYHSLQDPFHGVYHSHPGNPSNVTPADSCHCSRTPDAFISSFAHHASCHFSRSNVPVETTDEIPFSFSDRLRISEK
Threshold 80 nM. IC50 below it: Y. IC50 at it or above: N.

{"COMPOUND": "O=C(Nc1cnc(-n2cccn2)c(C(F)(F)F)c1)c1cnn(-c2ccc3c4c(cccc24)C(=O)N3)c1C(F)(F)F [US20250059196, Example 31]", "CAT": "Y"}
{"COMPOUND": "O=C(Nc1cnc(-n2nccn2)c(C(F)(F)F)c1)c1cnn(-c2cnc3c4c(cccc24)C(=O)N3)c1C1CC1 [US20250059196, Example 78]", "CAT": "Y"}
{"COMPOUND": "O=C(Nc1ccc(-n2cccn2)c(C(F)(F)F)c1)c1cnn(-c2cnc3c4c(cccc24)C(=O)N3)c1C(F)(F)F [US20250059196, Example 74]", "CAT": "N"}
{"COMPOUND": "O=C(Nc1cnc(N2CCC2)c(Cl)c1)c1cnn(-c2ccc3c4c(cccc24)C(=O)N3)c1C(F)(F)F [US20250059196, Example 48]", "CAT": "N"}
